Measured values drawn from patent US20090143279A1 for this set.

The following molecules are listed with their measured mitoOX values.
system: mtOXPHOS transcripts; type: cell-based, mouse; details: composite Z-score vs mock-treated (DMSO) wells; Conc 20 μM
quantity name: mitoOX

[[record]]
molecule = "COc1ccc(-c2coc3cc(O)ccc3c2=O)c(OC)c1 [2′-methoxyformonetin]"
measurement = "−0.296"

[[record]]
molecule = "CC1(C)C(=O)C=C[C@]2(C)[C@H]3CC[C@@]4(C)[C@H](c5ccoc5)OC(=O)[C@H]5O[C@]54[C@]3(C)C(=O)C[C@@H]12 [deacetoxy-7-oxogedunin]"
measurement = "−0.632"

[[record]]
molecule = "CC(C)c1c(O)ccc2c1CC[C@H]1[C@@](C)(CO)CCC[C@]21C [19-hydroxytotarol]"
measurement = 0.086

[[record]]
molecule = "C=C(C)[C@H]1COc2cc3oc(=O)ccc3cc2O1 [obliquin]"
measurement = 0.105

[[record]]
molecule = "CC1(C)C(=O)C=C[C@@]2(C)C1CC(=O)[C@@]1(C)C3=CC(=O)O[C@@H](c4ccoc4)[C@]3(C)CCC12 (some centres unmarked) [7-deacetoxy-7-oxodeoxygedunin]"
measurement = "−1.925"

